- System: Staphylococcus epidermidis
- TEST NAME: Antimicrobial activity against clinical isolate Staphylococcus epidermidis H 696608 after 48 hrs
- Assay type: functional
- CONDITION LABEL: H 696608, 48 h
Examples of compounds with documented MIC follow.
Answer format: numeric, µM implied, no suffix.

Look over these answered cases.
- COMPOUND: "CCCCCCCCCC[n+]1ccc2c(O)cccc2c1"
  EXPERIMENTAL VALUE: 250
- COMPOUND: "CCCCCCCCCCCCCC[N+](C)(C)Cc1ccccc1"
  EXPERIMENTAL VALUE: 1
- COMPOUND: "CCCCCCCCCCCCCC[n+]1ccc2c(O)cccc2c1"
  EXPERIMENTAL VALUE: 3.9

Exam item: Request the reported MIC associated with CCCCCCCCCCCC[n+]1ccc2ccccc2c1 [LAURYL ISOQUINOLINIUM BROMIDE]
Marked response: 0.5

Exam item: Try `CCCCCCCCCC[n+]1ccc2ccccc2c1` next.
Marked response: 2

* * *

Examples of compounds with documented MIC follow.
- Test system: Staphylococcus epidermidis
- TEST NAME: Antimicrobial activity against clinical isolate Staphylococcus epidermidis H 696608 after 24 hrs
- Assay type: functional
- CONDITION LABEL: H 696608, 24 h
Answer format: numeric, µM implied, no suffix.

- COMPOUND: "CCCCCCCCCCCCCC[n+]1ccc2c(O)cccc2c1"
  RESULT TYPE: "MIC"
  UNIT ANNOTATION: "µM"
  EXPERIMENTAL VALUE: 3.9
- COMPOUND: "CCCCCCCCCCCCCC[N+](C)(C)Cc1ccccc1"
  RESULT TYPE: "MIC"
  UNIT ANNOTATION: "µM"
  EXPERIMENTAL VALUE: 1
- COMPOUND: "CCCCCCCCCCCC[n+]1ccc2c(O)cccc2c1"
  RESULT TYPE: "MIC"
  UNIT ANNOTATION: "µM"
  EXPERIMENTAL VALUE: 3.9
- COMPOUND: "CCCCCCCCCCCCCCCC[n+]1ccc2c(O)cccc2c1"
  RESULT TYPE: "MIC"
  UNIT ANNOTATION: "µM"
  EXPERIMENTAL VALUE: 63
- COMPOUND: "CCCCCCCCCC[n+]1ccc2ccccc2c1"
  RESULT TYPE: "MIC"
  UNIT ANNOTATION: "µM"
  EXPERIMENTAL VALUE: 2
- COMPOUND: "CCCCCCCCCCCCCCCC[N+](C)(C)Cc1ccccc1"
  RESULT TYPE: "MIC"
  UNIT ANNOTATION: "µM"
  EXPERIMENTAL VALUE: 0.5
- COMPOUND: "CCCCCCCCCCCCCCCC[n+]1ccc2ccccc2c1"
  RESULT TYPE: "MIC"
  UNIT ANNOTATION: "µM"
  EXPERIMENTAL VALUE: 0.5
- COMPOUND: "CCCCCCCCCCCCCC[n+]1ccc2ccccc2c1"
  RESULT TYPE: "MIC"
  UNIT ANNOTATION: "µM"
  EXPERIMENTAL VALUE: 0.5

Exam item: Form entry - test system: Staphylococcus epidermidis; read-out: MIC; compound: `CCCCCCCCCCCCCCCCCC[n+]1ccc2ccccc2c1`
Marked response: 0.5
